# test_name: Microsomal stability (Clint assay), human liver microsome
# Assay type: in vitro ADME
# test_parameters: both sexes, liver microsomes, pH 7.4, 1 μM compound, 0.5 mg/mL protein, 1 mM NADPH, 37° C., read-out: Clearance CL int (human microsomes)
reported_property: microsomal CLint at 1 μM (µL/min/mg)
One number for each entry, in µL/min/mg.

{"columns": ["structure_string", "observed"],
 "data": [
  ["O=C(N[C@H](C(=O)NCCCc1ccccc1)c1ccccc1)c1ccc2cc(F)ccc2c1", 167]
]}

We now examine a further compound.
Q) I'd like to know its microsomal CLint at 1 μM. The compound in question is `Cc1ccc(Cn2c(/C=C/c3ccc(F)cc3)nc3ccccc32)cc1`
A) 52.4

---

Could you please report measured concentration at 1 h for the items listed next?
# test_name: Distribution of inhibitors in plasma and brain after intravenous dosing of mice
# Format: in vivo
# test_parameters: male, CD1, mouse, plasma, iv, 1 mg/kg, 1 mg/kg IV, 1 h, read-out: Plasma Concentrations, individual animals
# Procedure: Distribution of inhibitors in plasma and brain tissue was examined after intravenous dosing of mice with inhibitors. The experimental conditions were as follows: Mice: male CD1 about 8 weeks old; body weight: about 25 g; No. of groups: one; No. of animals per group: 5; vehicle for IV dosing: DMSO; dosage: 1 mg/kg. Plasma samples were separated by centrifugation in presence of K2-EDTA as anticoagulant. […] Samples were analyzed by a discovery grade bio-analytical method using LC-MS/MS method.
One number for each entry, in ng/mL.

{"columns": ["structure_string", "concentration at 1 h [ng/mL]"],
 "data": [
  ["O=C(N[C@H](C(=O)NCCCc1ccccc1)c1ccccc1)c1ccc2cc(F)ccc2c1", 50.3]
]}

We now examine a further molecule.
Q) I'd like to know its concentration at 1 h. The molecule in question is `Cc1ccc(Cn2c(/C=C/c3ccc(F)cc3)nc3ccccc32)cc1`
A) 33.7

---

# test_name: Distribution of inhibitors in plasma and brain after intravenous dosing of mice
# Type: in vivo
# test_parameters: male, CD1, mouse, plasma, iv, 1 mg/kg, 1 mg/kg IV, 0.15 h, read-out: Plasma Concentrations, individual animals
reported_property: concentration at 0.15 h

Q) I'd like to know its concentration at 0.15 h. The molecule in question is O=C(N[C@H](C(=O)NCCCc1ccccc1)c1ccccc1)c1ccc2cc(F)ccc2c1 [CAP01723]
A) 246 ng/mL

---

# test_name: Distribution of inhibitors in plasma and brain after intravenous dosing of mice
# Format: in vivo
# test_parameters: male, CD1, mouse, plasma, iv, 1 mg/kg, 1 mg/kg IV, 1 h, n = 5, read-out: Plasma Concentrations, mean
# Experimental: Distribution of inhibitors in plasma and brain tissue was examined after intravenous dosing of mice with inhibitors. The experimental conditions were as follows: Mice: male CD1 about 8 weeks old; body weight: about 25 g; No. of groups: one; No. of animals per group: 5; vehicle for IV dosing: DMSO; dosage: 1 mg/kg. Plasma samples were separated by centrifugation in presence of K2-EDTA as anticoagulant. […] Samples were analyzed by a discovery grade bio-analytical method using LC-MS/MS method.
Could you please report measured concentration at 1 h for the items listed next?
One number for each entry, in ng/mL.

{"columns": ["compound", "observed"],
 "data": [
  ["O=C(N[C@H](C(=O)NCCCc1ccccc1)c1ccccc1)c1ccc2cc(F)ccc2c1 [CAP01723]", 49.8]
]}

We now examine a further compound.
Q) I'd like to know its concentration at 1 h. The compound in question is Cc1ccc(Cn2c(/C=C/c3ccc(F)cc3)nc3ccccc32)cc1 [CAP01551]
A) 33.8

---

# test_name: Distribution of inhibitors in plasma and brain after intravenous dosing of mice
# Assay type: in vivo
# test_parameters: male, CD1, mouse, plasma, iv, 1 mg/kg, 1 mg/kg IV, 0.5 h, read-out: Plasma Concentrations, individual animals
reported_property: concentration at 0.5 h
Form field: result (number plus unit)

Take each entry in turn and give its concentration at 0.5 h.
1. O=C(N[C@H](C(=O)NCCCc1ccccc1)c1ccccc1)c1ccc2cc(F)ccc2c1
2. Cc1ccc(Cn2c(/C=C/c3ccc(F)cc3)nc3ccccc32)cc1

A)
1: 103 ng/mL; 2: 71.9 ng/mL

---

# test_name: Microsomal stability (Clint assay), rat liver microsome
# Format: in vitro ADME
# test_parameters: male, Sprague-Dawley, liver microsomes, pH 7.4, 1 μM compound, 0.5 mg/mL protein, 1 mM NADPH, 37° C., read-out: Clearance CL int (rat microsomes)
reported_property: microsomal CLint at 1 μM (µL/min/mg)
Answers are plain numbers, in µL/min/mg.

{"columns": ["structure_string", "unit_name", "observed"],
 "data": [
  ["O=C(N[C@H](C(=O)NCCCc1ccccc1)c1ccccc1)c1ccc2cc(F)ccc2c1", "µL/min/mg", 130]
]}

We now examine a further compound.
Q) I'd like to know its microsomal CLint at 1 μM. The compound in question is `Cc1ccc(Cn2c(/C=C/c3ccc(F)cc3)nc3ccccc32)cc1`
A) 202

---

Could you please report measured half-life at 1 μM for the items listed next?
# test_name: Microsomal stability (Clint assay), human liver microsome
# Type: in vitro ADME
# test_parameters: both sexes, liver microsomes, pH 7.4, 1 μM compound, 0.5 mg/mL protein, 1 mM NADPH, 37° C., read-out: Human microsomes T1/2
One number for each entry, in min.

{"columns": ["structure_string", "observed"],
 "data": [
  ["Cc1ccc(Cn2c(/C=C/c3ccc(F)cc3)nc3ccccc32)cc1", 26.4]
]}

We now examine a further compound.
Q) I'd like to know its half-life at 1 μM. The compound in question is `O=C(N[C@H](C(=O)NCCCc1ccccc1)c1ccccc1)c1ccc2cc(F)ccc2c1`
A) 8.29

---

# test_name: Distribution of inhibitors in plasma and brain after intravenous dosing of mice
# Type: in vivo
# test_parameters: male, CD1, mouse, plasma, iv, 1 mg/kg, 1 mg/kg IV, 0.5 h, n = 5, read-out: Plasma Concentrations, mean
reported_property: concentration at 0.5 h (ng/mL)
Numbers only, in ng/mL.

{"columns": ["structure_string", "reported_property", "observed"],
 "data": [
  ["Cc1ccc(Cn2c(/C=C/c3ccc(F)cc3)nc3ccccc32)cc1", "concentration at 0.5 h", 65.4]
]}

We now examine a further compound.
Q) I'd like to know its concentration at 0.5 h. The compound in question is `O=C(N[C@H](C(=O)NCCCc1ccccc1)c1ccccc1)c1ccc2cc(F)ccc2c1`
A) 100
